Biological target: T1, Anti-PSMA Fab (SEQ ID NOs: 19, 20)
T1 construct: Used biotinylated and captured on neutravidin coated plates; also called 006 PSMA Fab
Assay: phage binding ELISA; biotinylated anti-PSMA Fab on neutravidin plate, clonal phage supernatant, anti-M13-HRP detection
Where no end group is shown, it is not given here.
metric name: Anti-PSMA Fab (SEQ ID NOs: 19, 20) signal

{"columns": ["binder", "observed measurement"],
 "data": [
  ["IECAYMTDQRFWCW (cysteine pairing not given here; also: fused to phage pIII (clonal phage display), not shown: pIII coat protein of the bacteriophage to which the peptide is fused) [Phage-1716]", 1.93]
]}

With those in mind, consider the next binder.
Q) Provide one value: measured Anti-PSMA Fab (SEQ ID NOs: 19, 20) signal of HCLGPALGPVDGDC (cysteine pairing not given here; also: displayed on phage as pIII fusion, pIII sequence, linker and fusion order not given here, not shown: pIII coat protein of the bacteriophage to which the peptide is fused) [Phage-1717]
A) 2.33

These measurements were taken from patent US20260242478A1.
